- Tested on: Plasmodium berghei
- experimental-details: Luciferase/luciferin-expressing antifolate-resistant parasites were used to infect a culture of HepG2 cells that were pre-incubated with compounds. Infected hepatocytes emit light due to the luciferase reaction. Assay results are presented as the percent inhibition of light emission compared to control. […]
- Format: functional
- assay-conditions: sporozoite, HEPG2TOX_HILL_SLOPE 2.5, HEPG2TOX_R_SQUARED 0.833, PBLUC_HILL_SLOPE 128, PBLUC_R_SQUARED 0.253, read-out: LUCIFERASE INFECTION ASSAY - IC50
attribute-measured: pIC50
Give bare numbers, as −log10 of the molar value.

Task: Entry CC(=O)Nc1cccc(/C(C)=N/n2c(-c3cccc(Br)c3)cs/c2=N\c2ccc(F)cc2)c1 needs its pIC50 filled in; supply it.
Result: 5.78

----------
- Test system: Plasmodium berghei
- experimental-details: Luciferase/luciferin-expressing antifolate-resistant parasites were used to infect a culture of HepG2 cells that were pre-incubated with compounds. Infected hepatocytes emit light due to the luciferase reaction. Assay results are presented as the percent inhibition of light emission compared to control. […]
- Type: functional
- assay-conditions: sporozoite, HEPG2TOX_HILL_SLOPE 12.8, HEPG2TOX_R_SQUARED 0.501, PBLUC_HILL_SLOPE 2.59, PBLUC_R_SQUARED 0.498, read-out: LUCIFERASE INFECTION ASSAY - IC50
attribute-measured: pIC50
Give bare numbers, as −log10 of the molar value.

Task: Dear colleague, please send me the reported pIC50 for Cc1c(C)n(-c2nc3ccccc3s2)c2ncnc(NCCCN(C)C)c12 when you can.
Result: 5.14

----------
- Test system: Plasmodium berghei
- experimental-details: Luciferase/luciferin-expressing antifolate-resistant parasites were used to infect a culture of HepG2 cells that were pre-incubated with compounds. Infected hepatocytes emit light due to the luciferase reaction. Assay results are presented as the percent inhibition of light emission compared to control. […]
- Format: functional
- assay-conditions: sporozoite, PBLUC_HILL_SLOPE 1.40, 0.464, PBLUC_R_SQUARED 0.303, 0.681, read-out: LUCIFERASE INFECTION ASSAY - IC50
attribute-measured: IC50 (µM)
Numbers only, in µM.

Task: Report measured IC50; entry is c1ccc(Nc2nc(-c3ccc4c(c3)CCC4)cs2)nc1
Result: 4.84

----------
- Tested on: Plasmodium berghei
- experimental-details: Luciferase/luciferin-expressing antifolate-resistant parasites were used to infect a culture of HepG2 cells that were pre-incubated with compounds. Infected hepatocytes emit light due to the luciferase reaction. Assay results are presented as the percent inhibition of light emission compared to control. […]
- Assay type: functional
- assay-conditions: sporozoite, PBLUC_HILL_SLOPE 2.6, PBLUC_R_SQUARED 0.441, read-out: LUCIFERASE INFECTION ASSAY - IC50
attribute-measured: pIC50
Numbers only, as −log10 of the molar value.

Task: Report pIC50 under test system Plasmodium berghei for O=C(c1cc(C2=NNC(=Nc3ccc(Cl)cc3)SC2)c[nH]1)N1CCCC1 .
Result: 5.26

----------
- Test system: Plasmodium berghei
- experimental-details: Luciferase/luciferin-expressing antifolate-resistant parasites were used to infect a culture of HepG2 cells that were pre-incubated with compounds. Infected hepatocytes emit light due to the luciferase reaction. Assay results are presented as the percent inhibition of light emission compared to control. […]
- Assay type: functional
- assay-conditions: sporozoite, HEPG2TOX_HILL_SLOPE 16.9, HEPG2TOX_R_SQUARED 0.877, PBLUC_HILL_SLOPE 3.23, PBLUC_R_SQUARED 0.461, read-out: LUCIFERASE INFECTION ASSAY - IC50
attribute-measured: pIC50
Give bare numbers, as −log10 of the molar value.

Task: Please report the measured pIC50 for CCOC(=O)N/N=C(\CC)c1ccc(-c2ccccc2F)cc1
Result: 5.22
